Value source: ChEMBL document CHEMBL1201862

Tested on: SK-MEL-5
Experiment: NCI tumour cell line growth inhibition, 48 h
The source made the active and inactive calls. No stated cut-off is given here; in the data, active = GI50 up to about 1.1 µM and inactive = higher.
Parameter measured: GI50

Query: Find the measured GI50 of O=c1c2cn[nH]c2nc2scc(-c3ccc(Cl)cc3)n12 and report it.
Result: > 100 µM (inactive)

Query: Find the measured GI50 of C=C(C)C(=O)O[C@H]1C/C(CO)=C/CCC(=C)C(OC(C)=O)[C@H]2OC(=O)C(=C)[C@H]12 (some centres undefined) and report it.
Result: 14.7 µM (inactive)

Query: Find the measured GI50 of C[Si](C)(C)C1=C2C(=O)c3ccccc3C(=O)C2=C([Si](C)(C)C)[C@@H]2CCCC[C@H]12 and report it.
Result: > 100 µM (inactive)

Query: Find the measured GI50 of Cc1cn(C2CC(n3cc(Cn4cc(I)c(=O)[nH]c4=O)nn3)C(CO)O2)c(=O)[nH]c1=O (centres undefined) and report it.
Result: > 100 µM (inactive)

Query: Find the measured GI50 of O=C1CCCC/C1=C\c1ccc(Cl)c(Cl)c1 and report it.
Result: 17.2 µM (inactive)

Query: Find the measured GI50 of O=C(/C=C(\Nc1ccccc1O)c1ccc(Br)cc1)C(Cl)(Cl)Cl and report it.
Result: 14.2 µM (inactive)

* * *

Tested on: MDA-MB-231
Test: NCI tumour cell line growth inhibition, 48 h
The source made the active and inactive calls. No stated cut-off is given here; in the data, active = GI50 up to about 1.1 µM and inactive = higher.
Parameter measured: GI50

Query: Find the measured GI50 of COC1CC(O[C@H]2CC[C@@]3(C)[C@@H](CC[C@]4(O)[C@@H]3CC[C@]3(C)[C@@H](C(C)=O)[C@H](OC(=O)CC(C)C)[C@@H](OC(=O)c5ccccc5)[C@@]34O)C2)OC(C)C1OC1CC(OC)C(OC2OC(C)C(O)C(OC)C2O)C(C)O1 (stereo not given in full) and report it.
Result: 18.4 µM (inactive)

Query: Find the measured GI50 of c1ccc(-c2c(-c3cccs3)[nH]c(-c3cccs3)c2-c2ccccn2)nc1 and report it.
Result: 20.3 µM (inactive)

Query: Find the measured GI50 of COC(=O)C1(NC(=O)C(Cc2ccccc2)N(C(=O)OC(C)(C)C)C(=O)OC(C)(C)C)CCCC1 (stereo not given) and report it.
Result: 80.9 µM (inactive)

Query: Find the measured GI50 of C/C(=N\Nc1ccc2ccccc2n1)c1ccccc1O and report it.
Result: > 83 µM (inactive)

Query: Find the measured GI50 of CN1C(=O)C(=CNc2ccccc2Cl)C(=O)N(C)C1=O and report it.
Result: > 100 µM (inactive)

* * *

Tested on: TK-10
Assay: NCI tumour cell line growth inhibition, 48 h
Active and inactive are the calls of the source. Cut-off read from the data, not from the text of the source: active = GI50 up to about 1.1 µM and inactive = higher.
Reported GI50 values for the following molecules.

NC(Cc1c[nH]c(I)n1)C(=O)O (stereo not drawn) = > 100 µM (inactive)
COc1ccc(-c2cc(O)c3cccnc3n2)cc1 = 44.4 µM (inactive)
Clc1ccc2ns[s+]c2c1 = > 25.6 µM (inactive)
N=C(N)NS(=O)(=O)c1ccc(NC(=O)c2cccc3c(NNc4ccc(S(=O)(=O)N=C(N)N)cc4)c4ccccc4nc23)cc1 = > 100 µM (inactive)
COc1ccccc1NC(=O)CC(=O)N/N=C/c1ccc(N(CCC#N)S(=O)(=O)c2ccccc2)cc1 = > 100 µM (inactive)
N=C(N)N/N=C/c1c(-c2ccc(Cl)cc2)nc2n1CCS2 = 15.7 µM (inactive)
O=C1CSC(c2ccccc2)N1c1nc2cc3sc(N4C(=O)CSC4c4ccccc4)nc3cc2s1 (stereo not drawn) = 53.2 µM (inactive)

Query: Find the measured GI50 of O=C(c1ccccc1)c1c(CC(O)c2ccncc2)n(C(=O)c2ccccc2)c2ccccc12 (stereo not drawn) and report it.
Result: 28.6 µM (inactive)

* * *

Reported GI50 values for the following molecules.
System: COLO 205
Assay: NCI tumour cell line growth inhibition, 48 h
The source made the active and inactive calls. Rule as the data show it: active = GI50 up to about 1.1 µM and inactive = higher.

Query: Find the measured GI50 of COC1OC(CO)C(O)C(OC(=O)c2cc(O)c(O)c(O)c2)C1OC(=O)c1cc(O)c(O)c(O)c1 (stereo unspecified) and report it.
Result: 59.8 µM (inactive)

* * *

Test system: SW-620
Assay: NCI tumour cell line growth inhibition, 48 h
Active and inactive are the calls of the source. Cut-off read from the data, not from the text of the source: active = GI50 up to about 1.1 µM and inactive = higher.
Please state which outcome applies, choosing from active, inactive

Here are 5 compounds together with their reported answers.
COC(OC)C(C)CC(=O)N(C)C (stereo not given) = inactive
CN1CCC(CNC(=O)CCCCCCCCC(=O)NCC2(c3ccccc3)CCN(C)CC2)(c2ccccc2)CC1 = inactive
COc1ccc(Cc2nc3cc(C(F)(F)F)ccc3n2CCCN(C)C)cc1 = inactive
[N-]=[N+]=Nc1ccc2c(c1)Sc1ccccc1N2CCCCN1CCN(Cc2ccc(C(=O)c3ccc(CSCC(N)C(=O)O)cc3)cc2)CC1 (stereo not given) = inactive
Cc1ccc(/C=N/Nc2ncccn2)s1 = inactive

Query: Dear all, I need the recorded test outcome for Cc1cc(C#N)c(Nc2ccc(F)cc2[N+](=O)[O-])s1 , thank you.
Result: inactive

Query: Dear all, I need the recorded test outcome for CC(=O)O[C@H]1C=CC23OC(=O)[C@]1(C)[C@H]2[C@H](C(=O)O)C12CC(=O)[C@@](CO)(CC[C@H]13)C2 , thank you.
Result: inactive

Query: Dear all, I need the recorded test outcome for CC1OC(OC2C[C@](O)(C(=O)CF)Cc3c(O)c4c(c(O)c32)C(=O)c2ccccc2C4=O)CC(N)C1O (stereo not given in full) , thank you.
Result: active

Query: Dear all, I need the recorded test outcome for COC(=O)c1ccc(NCC2=CC(=O)C=CC2=O)cc1O , thank you.
Result: inactive

Query: Dear all, I need the recorded test outcome for Cc1cn(C2CC(n3cc(Cn4cc(I)c(=O)[nH]c4=O)nn3)C(CO)O2)c(=O)[nH]c1=O (stereo not given) , thank you.
Result: inactive

* * *

Reported GI50 values for the following compounds.
System: RPMI-8226
Experiment: NCI tumour cell line growth inhibition, 48 h
Calls of active or inactive are those of the source. No stated cut-off is given here; in the data, active = GI50 up to about 1.1 µM and inactive = higher.

Worked examples, 2 compounds total:
C[Si](C)(C)C1=C2C(=O)c3ccccc3C(=O)C2=C([Si](C)(C)C)[C@@H]2CCCC[C@H]12 = > 100 µM (inactive)
c1ccc(-c2cc(-c3cc(-c4ccccn4)[nH]n3)n[nH]2)nc1 = 70.6 µM (inactive)

Query: Answer briefly: GI50 recorded on RPMI-8226 for c1ccc(-c2c(-c3cccs3)[nH]c(-c3cccs3)c2-c2ccccn2)nc1
Result: 20 µM (inactive)

Query: Answer briefly: GI50 recorded on RPMI-8226 for COc1cc(CNC(=O)CCCCCCCC/C=C/Br)ccc1O
Result: > 10 µM (inactive)

Query: Answer briefly: GI50 recorded on RPMI-8226 for COc1cccc(C2ON=C(c3ccccc3)N2C23CC4CC(CC(C4)C2)C3)c1 (stereo unspecified)
Result: 7.24 µM (inactive)

Query: Answer briefly: GI50 recorded on RPMI-8226 for Cn1c(=O)c(-c2ccccc2)c(O)c2ccccc21
Result: > 100 µM (inactive)

Query: Answer briefly: GI50 recorded on RPMI-8226 for N/C(=N\Nc1ccc(S(N)(=O)=O)cc1)c1cnccn1
Result: > 100 µM (inactive)

Query: Answer briefly: GI50 recorded on RPMI-8226 for Oc1ccc2c(O)cc(-c3ccccc3)nc2c1
Result: 17.5 µM (inactive)

Query: Answer briefly: GI50 recorded on RPMI-8226 for COc1ccc(C2SCC(=O)N2c2ccc(-n3c(-c4ccccc4)nc4ccccc4c3=O)cc2)cc1OC (stereo unspecified)
Result: > 100 µM (inactive)

Query: Answer briefly: GI50 recorded on RPMI-8226 for CN1Cc2ccccc2C2(COc3ccccc3C2=O)C1 (stereo unspecified)
Result: 68.7 µM (inactive)

Query: Answer briefly: GI50 recorded on RPMI-8226 for C1CCSCCCCSCCCCSCCCCSC1
Result: > 100 µM (inactive)

* * *

Reported GI50 values for the following molecules.
Test system: RXF 393
Assay: NCI tumour cell line growth inhibition, 48 h
Active and inactive are the calls of the source. Cut-off read from the data, not from the text of the source: active = GI50 up to about 1.1 µM and inactive = higher.

Worked examples, 3 molecules total:
CCc1nnc(CC)n1N1C(=O)CCC1=O = > 100 µM (inactive)
CCOC1Oc2ccccc2-c2nc(SC)ncc21 (stereo unspecified) = > 100 µM (inactive)
O=C1/C(=C\c2cccc(Oc3ccccc3)c2)S(=O)(=O)C(c2ccccc2)N1c1cc(Cl)ccc1Cl (stereo unspecified) = 15.5 µM (inactive)

Query: Find the measured GI50 of COc1cccc(C2ON=C(c3ccccc3)N2C23CC4CC(CC(C4)C2)C3)c1 (stereo unspecified) and report it.
Result: > 10 µM (inactive)

Query: Find the measured GI50 of Cc1cc(C#N)c(Nc2ccc(F)cc2[N+](=O)[O-])s1 and report it.
Result: 20.2 µM (inactive)

Query: Find the measured GI50 of COC(=O)[C@]1(c2cc3ccccc3[nH]2)CC2CN(CC(=O)N(C)OC)C1CC2(OC)OC (stereo partly specified) and report it.
Result: 33.5 µM (inactive)
